Reported activation at 0.1 µM values are given for each entry in this list.
- Test Target: glucocerebrosidase (Gcase) (Homo sapiens, UniProt P04062)
- Construct: micellar solution containing 10 nM GCase and 100 nM saposin C
- Sequence (P04062 40-536): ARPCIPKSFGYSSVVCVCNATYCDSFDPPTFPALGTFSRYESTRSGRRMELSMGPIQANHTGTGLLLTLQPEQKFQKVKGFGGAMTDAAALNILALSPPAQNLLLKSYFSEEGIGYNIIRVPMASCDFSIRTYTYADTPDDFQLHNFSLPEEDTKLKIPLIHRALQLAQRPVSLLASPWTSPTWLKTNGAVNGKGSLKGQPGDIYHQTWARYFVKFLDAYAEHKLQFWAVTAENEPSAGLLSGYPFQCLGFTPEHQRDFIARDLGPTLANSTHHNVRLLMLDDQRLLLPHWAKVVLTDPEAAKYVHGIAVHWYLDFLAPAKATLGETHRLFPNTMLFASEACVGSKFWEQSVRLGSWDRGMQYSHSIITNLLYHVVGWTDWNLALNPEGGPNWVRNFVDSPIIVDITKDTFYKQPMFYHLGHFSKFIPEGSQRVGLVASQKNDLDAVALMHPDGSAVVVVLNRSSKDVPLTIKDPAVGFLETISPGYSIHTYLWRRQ
- Assay Explanation: Glucocerebrosidase (Gcase) activation assay, 4-methylumbelliferyl-beta-D-glucopyranoside substrate, fluorescence readout
- Format: biochemical
- Assay Context: test compound at 0.1 μM; read-out: Percent Gcase Activation, 0.1 μM Test Compound

Compound	activation at 0.1 µM
Cc1cc(C)n2ccc(C(=O)N[C@H]3CC[C@H](OCC(C)C)CC3)c2n1 [III-288]	> 20%
Cc1cc(C)n2ccc(C(=O)N[C@H]3CCc4ccccc43)c2n1 [III-217]	> 20%
CCCCCN(C)C(=O)[C@H]1CC[C@H](NC(=O)c2ccn3c(C)cc(C)nc23)CC1 [III-203]	< 10%
COCCCO[C@H]1CC[C@H](NC(=O)c2ccn3c(C)cc(C)nc23)CC1 [III-107]	< 10%

###

- Test Target: glucocerebrosidase (Gcase) (Homo sapiens, UniProt P04062)
- Construct: micellar solution containing 10 nM GCase and 100 nM saposin C
- Assay Explanation: Glucocerebrosidase (Gcase) activation assay, 4-methylumbelliferyl-beta-D-glucopyranoside substrate, fluorescence readout
- Assay type: biochemical
- Assay Context: test compound at 1.0 μM; read-out: Percent Gcase Activation, 1 μM Test Compound

Compound	Test Target	activation at 1 µM
Cc1cc(C)n2ccc(C(=O)NC3CCc4ccccc4C3)c2n1 (centres unmarked)	glucocerebrosidase (Gcase) (Homo sapiens, UniProt P04062)	> 60%
Cc1cc(C)n2ccc(C(=O)Nc3cnc(-c4ncccn4)c(Cl)c3)c2n1	glucocerebrosidase (Gcase) (Homo sapiens, UniProt P04062)	< 30%
Cc1cc(C(F)(F)F)nc2c(C(=O)NC3CCC4(CCCCO4)C3)ccn12 (centres unmarked)	glucocerebrosidase (Gcase) (Homo sapiens, UniProt P04062)	> 60%
Cc1cc(C)n2ccc(C(=O)NC3Cc4ccc(-c5ncco5)cc4C3)c2n1 (centres unmarked)	glucocerebrosidase (Gcase) (Homo sapiens, UniProt P04062)	> 60%
CCCCCO[C@H]1CC[C@@H](NC(=O)c2ccn3c(C)cc(C)nc23)CC1	glucocerebrosidase (Gcase) (Homo sapiens, UniProt P04062)	> 60%
CC[C@@H](C)O[C@H]1CC[C@H](NC(=O)c2ccn3c(C)cc(C)nc23)CC1	glucocerebrosidase (Gcase) (Homo sapiens, UniProt P04062)	> 60%
Cc1cc(C)n2ccc(C(=O)NC3CCc4nc(C)sc4C3)c2n1 (centres unmarked)	glucocerebrosidase (Gcase) (Homo sapiens, UniProt P04062)	< 30%
Cc1cc(C)n2ccc(C(=O)NC3CCN(CC(F)(F)F)C3)c2n1 (centres unmarked)	glucocerebrosidase (Gcase) (Homo sapiens, UniProt P04062)	< 30%

###

Measured activation at 1 µM by item
- Test Target: glucocerebrosidase (Gcase) (Homo sapiens, UniProt P04062)
- Construct: micellar solution containing 10 nM GCase and 100 nM saposin C
- Assay Explanation: Glucocerebrosidase (Gcase) activation assay, 4-methylumbelliferyl-beta-D-glucopyranoside substrate, fluorescence readout
- Format: biochemical
- Assay Context: test compound at 1.0 μM; read-out: Percent Gcase Activation, 1 μM Test Compound
- Description: The ability of exemplary compounds to activate glucocerebrosidase (Gcase) was measured. A 484 μL aliquot of a 1.0 mg/mL solution of phosphatidylserine (PS) (Sigma P7769) in chloroform was evaporated under a stream of nitrogen for 1 hour. The lipid film was dissolved over 4 minutes of vigorous vortexing in 40 mL of 176 mM K2HPO4/50 mM citric acid (pH 4.7) containing 7.5 μL of triton X-100, resulting in a mixed micellar preparation with a composition of 0.32 mM triton and 0.37 mol % PS. […]

Compound	activation at 1 µM
Cc1cc(C)n2ccc(C(=O)NC3(C)CCOc4cccc(F)c43)c2n1 (stereo not shown)	> 60%
Cc1cc(C(F)(F)F)n2ccc(C(=O)NC3CCCc4ccccc43)c2n1 (stereo not shown)	30 to 60%
Cc1cc(Cl)n2ccc(C(=O)Nc3ccc(-c4cocn4)cc3)c2n1	30 to 60%
C#Cc1cccc(C(C)(C)NC(=O)c2ccn3c(COC)cc(C)nc23)c1	> 60%
Cc1cc(C)n2ccc(C(=O)Nc3ccc(C)c(-c4ncco4)c3)c2n1	> 60%
CNc1cc(C)n2ccc(C(=O)N[C@H]3CC[C@H](OCC(C)C)CC3)c2n1	> 60%
Cc1cc(C)n2ccc(C(=O)NC3CCc4ccc(-c5cocn5)cc43)c2n1 (stereo not shown)	> 60%
